Data origin: PubChem BioAssay (NCI)

system: SNB-75 CNS; assay: NCI-60 one-dose screen, 48 h; settings: 10 µM unless noted
Compounds without any hit were thinned out: in the full panel of roughly 83,000, 20% have a hit. Calls of active or inactive are those of the source. The calls were made as follows: active = growth percent below 10; inactive = the rest.
Possible outcomes: active, inactive

• O=C(NO)c1ccc(-n2nc(-c3ccccc3)c3ccccc32)cc1 = inactive
• COc1ccc(-c2nc([C@@H](C)Sc3nc(N)cc(N)n3)c(C)s2)cc1OCCN1CCOCC1 = inactive
• OC(c1ccc(F)c(C(F)(F)F)c1)c1cnccc1NC1CCCCC1 (centres undefined) = inactive
• CN1CCN(C(=O)[C@]23CCC(C)(C)C[C@H]2C2=CC[C@@H]4[C@@]5(C)C/C(=C/c6cccnc6)C(=O)C(C)(C)[C@@H]5CC[C@@]4(C)[C@]2(C)CC3)CC1 = inactive
• Cn1c(-c2c(N)n(CCCN3CCOCC3)c3nc(C#N)c(C#N)nc23)nc2ccccc21 = inactive
• CN(C)CCn1c2ccc(Br)cc2c2nc3ccccc3nc21 = inactive
• COc1cc(-c2n/c(=C\c3c(O)[nH]c4ccc(Cl)cc34)cc3c2=Nc2ccccc2-3)ccc1F = active
• O=C(CSc1nc2sc3c(c2c(=O)n1-c1ccc(Cl)cc1)CCCC3)Nc1nc(-c2cccc(Br)c2)cs1 = inactive
• CCCC/C=N/NC(=S)NCc1ccccc1 = inactive
